Origin of the recorded values: patent US10745416B2

target: KIF5B-RET WT (Homo sapiens, UniProt P07949); construct: KIF5B (N-terminal fusion partner, kinesin-1 heavy chain, P33176); the other entry of the earlier key: KIF5B (P33176, Kinesin-1 heavy chain); assay: Immunoblotting for cellular RET phosphorylation in Ba/F3 KIF5B-RET WT; settings: 4 hours treatment, read-out: suppression of RET autophosphorylation IC50
pIC50: −log10 of the molar value.
readout.kind: pIC50

molecular_string=C[C@H]1CNC(=O)c2cnn3cc4c(nc23)N(Cc2cc(F)cnc2O1)[C@@H]1CCC[C@@H]1O4 system="KIF5B-RET WT (Homo sapiens, UniProt P07949)" value_observed="8.52 to 9.00"

###

target: BaF3 KIF5B-RET (Homo sapiens, UniProt P07949); construct: fused on or other part: P33176 (Kinesin-1 heavy chain); assay: Cell proliferation assay (CellTiter-Glo, 72 hours); assay type: cell-based; details: anti-cell proliferation, read-out: BaF3 KIF5B-RET IC50
Sequence (P07949 whole entry, change not shown, the tested form may be a part): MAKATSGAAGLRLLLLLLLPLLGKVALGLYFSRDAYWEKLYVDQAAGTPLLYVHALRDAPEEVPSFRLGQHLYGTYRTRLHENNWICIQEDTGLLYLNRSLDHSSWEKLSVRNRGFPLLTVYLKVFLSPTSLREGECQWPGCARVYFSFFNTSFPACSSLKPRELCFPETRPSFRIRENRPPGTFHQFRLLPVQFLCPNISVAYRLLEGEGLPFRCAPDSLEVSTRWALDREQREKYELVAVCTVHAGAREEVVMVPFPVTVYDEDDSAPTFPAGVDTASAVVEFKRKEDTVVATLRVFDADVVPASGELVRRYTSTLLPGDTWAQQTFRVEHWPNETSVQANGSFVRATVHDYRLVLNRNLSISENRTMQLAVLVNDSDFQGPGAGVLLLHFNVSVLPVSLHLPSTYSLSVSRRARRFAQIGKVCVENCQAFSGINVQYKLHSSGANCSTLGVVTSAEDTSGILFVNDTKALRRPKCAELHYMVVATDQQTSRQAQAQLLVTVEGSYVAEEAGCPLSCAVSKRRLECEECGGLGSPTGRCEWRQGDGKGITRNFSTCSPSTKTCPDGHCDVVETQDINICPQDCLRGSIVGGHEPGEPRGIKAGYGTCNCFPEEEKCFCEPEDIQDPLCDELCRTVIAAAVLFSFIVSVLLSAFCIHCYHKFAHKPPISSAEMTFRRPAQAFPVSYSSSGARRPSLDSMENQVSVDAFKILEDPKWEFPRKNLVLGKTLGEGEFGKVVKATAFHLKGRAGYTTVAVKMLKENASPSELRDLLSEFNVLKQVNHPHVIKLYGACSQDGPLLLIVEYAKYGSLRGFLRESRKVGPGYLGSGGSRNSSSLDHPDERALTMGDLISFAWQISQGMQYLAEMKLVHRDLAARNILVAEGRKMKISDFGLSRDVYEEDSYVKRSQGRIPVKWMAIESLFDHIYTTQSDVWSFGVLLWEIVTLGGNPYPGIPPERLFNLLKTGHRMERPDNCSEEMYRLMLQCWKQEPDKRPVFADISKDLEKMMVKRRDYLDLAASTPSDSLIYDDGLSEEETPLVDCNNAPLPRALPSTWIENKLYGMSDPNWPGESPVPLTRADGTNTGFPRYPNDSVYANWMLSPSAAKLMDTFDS
Note to self: class = bucket of GI50, per label 0: < 1 nM; label 1: ≥ 1 nM and < 200 nM; label 2: ≥ 200 nM

compound="O=C1N[C@H](C(F)(F)F)COc2ncc(F)cc2CN2c3nc4c1cnn4cc3O[C@H]1CCC[C@H]12 [Compound 48]" class_name="label 0"
compound="CC1(C)CNC(=O)c2cnn3cc4c(nc23)N(Cc2cc(F)cnc2OC1)[C@@H]1CCC[C@@H]1O4 [Compound 27]" class_name="label 0"
compound="C[C@@H]1CNC(=O)c2cnn3cc4c(nc23)N(Cc2cc(F)cnc2O1)[C@H]1CCC[C@H]1O4 [Compound 44]" class_name="label 2"
compound="CC(=O)N1C[C@H]2Oc3cn4ncc5c4nc3N(Cc3cc(F)cnc3O[C@@H](C)CNC5=O)[C@H]2C1 [Compound 37]" class_name="label 2"
compound="O=C1N[C@@H]2CCC[C@@H]2Oc2ncc(F)cc2CN2c3nc4c1cnn4cc3O[C@H]1CCC[C@H]12 [Compound 24]" class_name="label 1"
compound="C[C@H]1CNC(=O)c2cnn3cc4c(nc23)N(Cc2cc(F)ccc2O1)[C@@H]1COC[C@@H]1O4 [Compound 4]" class_name="label 1"
compound="C[C@@H]1COc2c(F)cc(F)cc2CN2c3nc4c(cnn4cc3O[C@H]3CCC[C@H]32)C(=O)N1 [Compound 7]" class_name="label 0"
compound="C[C@H]1CNC(=O)c2cnn3cc4c(nc23)N(Cc2cc(F)ccc2O1)[C@@H]1CCC[C@H]1O4 [Compound 2]" class_name="label 2"
compound="O=C1N[C@@H]2CC[C@@H](C2)Oc2ncc(F)cc2CN2c3nc4c1cnn4cc3O[C@H]1CCC[C@H]12 [Compound 42]" class_name="label 0"
compound="O=C1N[C@H](C(F)F)COc2ncc(F)cc2CN2c3nc4c1cnn4cc3O[C@H]1CCC[C@H]12 [Compound 47]" class_name="label 0"
compound="O=C1NC2(CCCC2)COc2ncc(F)cc2CN2c3nc4c1cnn4cc3O[C@H]1CCC[C@H]12 [Compound 26]" class_name="label 1"
compound="O=C1NC2(CCC2)COc2ncc(F)cc2CN2c3nc4c1cnn4cc3O[C@H]1CCC[C@H]12 [Compound 22]" class_name="label 0"
compound="C[C@H]1CCNC(=O)c2cnn3cc4c(nc23)N(Cc2cc(F)cnc2O1)[C@@H]1CCC[C@@H]1O4 [Compound 15]" class_name="label 1"
compound="O=C1NC[C@H](O)COc2ncc(F)cc2CN2c3nc4c1cnn4cc3O[C@H]1CCC[C@H]12 [Compound 32]" class_name="label 1"
